Please respond with reported pIC50 for every item in the list.
- target.under.test: UniProt:Q8NER1
- Sequence (Q8NER1 whole entry): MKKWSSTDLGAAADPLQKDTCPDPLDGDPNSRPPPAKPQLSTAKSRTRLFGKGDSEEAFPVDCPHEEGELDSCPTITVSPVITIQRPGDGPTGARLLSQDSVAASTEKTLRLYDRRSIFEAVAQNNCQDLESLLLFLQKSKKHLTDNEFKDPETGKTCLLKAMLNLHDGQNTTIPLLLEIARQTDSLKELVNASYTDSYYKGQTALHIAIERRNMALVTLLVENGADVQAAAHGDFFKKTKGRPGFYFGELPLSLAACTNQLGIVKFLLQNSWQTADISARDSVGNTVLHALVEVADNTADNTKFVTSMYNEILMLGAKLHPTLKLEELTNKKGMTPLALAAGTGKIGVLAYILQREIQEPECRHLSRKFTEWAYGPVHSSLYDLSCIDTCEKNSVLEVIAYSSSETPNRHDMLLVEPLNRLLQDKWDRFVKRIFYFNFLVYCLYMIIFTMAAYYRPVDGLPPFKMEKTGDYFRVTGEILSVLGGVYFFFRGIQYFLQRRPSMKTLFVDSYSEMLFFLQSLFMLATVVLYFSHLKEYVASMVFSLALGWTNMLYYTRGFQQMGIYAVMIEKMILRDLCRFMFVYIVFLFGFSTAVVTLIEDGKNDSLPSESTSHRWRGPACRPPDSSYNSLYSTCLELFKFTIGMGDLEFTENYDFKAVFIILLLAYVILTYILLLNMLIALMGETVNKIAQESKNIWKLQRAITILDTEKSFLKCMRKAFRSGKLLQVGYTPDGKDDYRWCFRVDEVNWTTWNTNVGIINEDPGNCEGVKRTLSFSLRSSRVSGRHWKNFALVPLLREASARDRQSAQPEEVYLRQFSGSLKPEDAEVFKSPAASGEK
- experimental.protocol: Functional assay: block of capsaicin-induced Ca2+ influx, human assay (hTRPV1/HEK293, FLIPR)
- measurement.context: hTRPV1/HEK293 cells, 150 nM capsaicin challenge, Fluo-3 fluorescence; mean; > value = solubility limit in assay medium
Answer as the number alone; pIC50 is minus log10 of concentration in mol/L.

Dear colleague, please send me the reported pIC50 for Fc1cc(Nc2ncnc3sc(Nc4c(Cl)cccc4Cl)nc23)ccc1C(F)(F)F [Example 215] when you can.
7.82

Dear colleague, please send me the reported pIC50 for Cc1cccc(C)c1Nc1nc2c(Nc3ccc(C#N)c(Cl)c3)ncnc2s1 [Example 142] when you can.
6.40

Dear colleague, please send me the reported pIC50 for Cc1cccc(C)c1Nc1nc2c(Nc3ccc(C(C)C)cc3)ncnc2s1 [Example 46] when you can.
8.10

Dear colleague, please send me the reported pIC50 for Cc1nc(Nc2ccc(C#N)cc2)c2nc(Nc3c(Cl)cccc3Cl)sc2n1 [Example 96] when you can.
7.92

Dear colleague, please send me the reported pIC50 for FC(F)(F)c1ccc(Nc2nc(N3CCC3)nc3sc(Nc4c(Cl)cccc4Cl)nc23)cc1 [Example 59] when you can.
7.20

Dear colleague, please send me the reported pIC50 for Cc1cccc(C)c1Nc1nc2c(Nc3ccc(C(F)(F)F)cc3)ncnc2s1 [Example 10] when you can.
7.59

Dear colleague, please send me the reported pIC50 for O=S(=O)(c1ccc(Nc2ncnc3sc(Nc4ccccc4Cl)nc23)cc1)N1CCCC1 [Example 109] when you can.
7.55

Dear colleague, please send me the reported pIC50 for Cc1cccc(C)c1Nc1nc2c(Nc3ccc(OC(F)(F)F)cc3)ncnc2s1 [Example 28] when you can.
7.09

Dear colleague, please send me the reported pIC50 for CN(C)S(=O)(=O)c1ccc(Nc2ncnc3sc(Nc4ccccc4Cl)nc23)cc1 [Example 113] when you can.
7.42

Dear colleague, please send me the reported pIC50 for Cc1noc(C)c1Nc1nc2c(Nc3ccc(C(F)(F)F)nc3)ncnc2s1 [Example 24] when you can.
5.63

Dear colleague, please send me the reported pIC50 for Cc1nc(Nc2ccc(C(F)(F)F)cc2)c2nc(Nc3ccccc3[N+](=O)[O-])sc2n1 [Example 206] when you can.
5.61

Dear colleague, please send me the reported pIC50 for Cc1nc(Nc2ccc(S(=O)(=O)N3CCCC3)cc2)c2nc(Nc3c(Cl)cccc3Cl)sc2n1 [Example 73] when you can.
9.00

Dear colleague, please send me the reported pIC50 for Cc1nc(Nc2ccc(C(F)(F)F)cc2)c2nc(Nc3c(C)cccc3C)sc2n1 [Example 245] when you can.
8.22

Dear colleague, please send me the reported pIC50 for CS(=O)(=O)c1ccc(Nc2nc(NCC3CC3)nc3sc(Nc4c(Cl)cccc4Cl)nc23)cc1 [Example 184] when you can.
8.10

Dear colleague, please send me the reported pIC50 for COc1ccc(Nc2ncnc3sc(Nc4c(C)cccc4C)nc23)cc1 [Example 33] when you can.
6.69

Dear colleague, please send me the reported pIC50 for Cc1cccc(Cl)c1Nc1nc2c(Nc3ccc(C(F)(F)F)cc3)ncnc2s1 [Example 14] when you can.
7.96

Dear colleague, please send me the reported pIC50 for FC(F)(F)c1ccc(Nc2ncnc3sc(Nc4ccccc4C(F)(F)F)nc23)cn1 [Example 219] when you can.
6.98

Dear colleague, please send me the reported pIC50 for CS(=O)(=O)c1ccc(Nc2ncnc3sc(Nc4ccccc4Cl)nc23)cc1 [Example 126] when you can.
6.89

Dear colleague, please send me the reported pIC50 for CS(=O)(=O)c1ccccc1Nc1nc2c(Nc3ccc(C(F)(F)F)nc3)ncnc2s1 [Example 199] when you can.
5.67

Dear colleague, please send me the reported pIC50 for Cc1nc(Nc2ccc(S(C)(=O)=O)cc2)c2nc(Nc3c(C)cccc3C)sc2n1 [Example 95] when you can.
8.00

Dear colleague, please send me the reported pIC50 for Cc1nc(Nc2ccc(C(F)(F)F)nc2)c2nc(Nc3c(C)cccc3C)sc2n1 [Example 246] when you can.
7.74

Dear colleague, please send me the reported pIC50 for CC(C)C1CCCN1c1nc(Nc2ccc(C(F)(F)F)cc2)c2nc(Nc3c(Cl)cccc3Cl)sc2n1 (racemic) [Example 89] when you can.
8.15

Dear colleague, please send me the reported pIC50 for CSc1ccc(Nc2nc(C)nc3sc(Nc4c(Cl)cccc4Cl)nc23)cc1 [Example 94] when you can.
8.10

Dear colleague, please send me the reported pIC50 for Cc1ccccc1Nc1nc2c(Nc3ccc(S(=O)(=O)N4CCOCC4)cc3)ncnc2s1 [Example 217] when you can.
8.10

Dear colleague, please send me the reported pIC50 for Cc1noc(C)c1Nc1nc2c(Nc3ccc(C(F)(F)F)cc3)ncnc2s1 [Example 25] when you can.
6.38

Dear colleague, please send me the reported pIC50 for Cc1cccc(C)c1Nc1nc2c(Nc3ccc(C(F)(F)F)nc3)ncnc2s1 [Example 11] when you can.
7.64

Dear colleague, please send me the reported pIC50 for Cc1nc(Nc2ccc(S(=O)(=O)C(F)(F)F)cc2)c2nc(Nc3c(Cl)cccc3Cl)sc2n1 [Example 77] when you can.
9.00

Dear colleague, please send me the reported pIC50 for CC(C)OC(=O)C(C)(C)c1ccc(Nc2ncnc3sc(Nc4c(Cl)cccc4Cl)nc23)cc1 [Example 231] when you can.
6.16

Dear colleague, please send me the reported pIC50 for Cc1nc(Nc2ccc3c(c2)N(C)CCC3(C)C)c2nc(Nc3c(Cl)cccc3Cl)sc2n1 [Example 107] when you can.
7.60

Dear colleague, please send me the reported pIC50 for Cc1noc(C)c1Nc1nc2c(Nc3ccc(C(C)(C)C#N)cc3)ncnc2s1 [Example 223] when you can.
6.77

Dear colleague, please send me the reported pIC50 for Cc1ccccc1Nc1nc2c(Nc3ccc(S(C)(=O)=O)cc3)ncnc2s1 [Example 116] when you can.
7.35

Dear colleague, please send me the reported pIC50 for Cc1cccc(C)c1Nc1nc2c(Nc3ccc(Cl)cc3)ncnc2s1 [Example 132] when you can.
6.76

// data source = patent US20080004253A1
